Every entry's value here was drawn from paper PMC10593477.

- system: T1, recombinant uPAR-Biotin (human, UniProt Q03405 23-305, biotin)
- T1 construct: May be one of the bought proteins (uPAR-His or uPAR-Fc) after biotinylation
- T1 sequence (Q03405 23-305): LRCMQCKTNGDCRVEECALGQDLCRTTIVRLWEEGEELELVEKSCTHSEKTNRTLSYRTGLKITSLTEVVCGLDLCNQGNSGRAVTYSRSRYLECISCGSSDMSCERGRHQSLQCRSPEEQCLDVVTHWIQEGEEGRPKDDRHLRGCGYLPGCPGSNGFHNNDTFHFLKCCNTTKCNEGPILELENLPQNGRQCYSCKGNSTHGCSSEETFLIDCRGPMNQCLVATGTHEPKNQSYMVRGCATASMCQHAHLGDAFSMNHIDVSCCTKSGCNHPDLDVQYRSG
- protocol: BLI; BLItz; streptavidin biosensors coated with 16.7 μg/mL recombinant uPAR-Biotin; 400nM, 200nM and 100nM of VH, VH-Fc, DbTE, association 2 min; dissociation in DPBS 4 min
- cond: both partners purified
recordedMetric: kon (M⁻¹ s⁻¹)
Value expressed in M⁻¹ s⁻¹; do not type the unit.

Solved entries:
[
  {
    "binder": "VH 3 (VHH, Human single VH domain antibody (not a camelid VHH); Monomeric by SEC; also called clone 3; anti-uPAR VH 3; source: E.coli TopF expression system, purified on Ni-NTA columns) VHH: EVQLVESGGGLVQPGGSLRLSCAASGFTFSRYWMSWVRQAPGKALEWIGEINHSGSTNYNPSLKSLVTISRDNSKNTLYLQMNSLRAEDTATYYCARSLVPALSYYYYYGMDVWGQGTTVTVSS",
    "unitsOfMeasure": "M⁻¹ s⁻¹",
    "val": 79000
  },
  {
    "binder": "VH-Fc 3 (Fc fusion, human, VH 3 domain, as m1; VH cloned into the pcDNA-IgG1 Fc vector; source: Expi293, transiently transfected, purified by protein A resin; not shown: Fc (human IgG1), C-terminal, kept) VH: EVQLVESGGGLVQPGGSLRLSCAASGFTFSRYWMSWVRQAPGKALEWIGEINHSGSTNYNPSLKSLVTISRDNSKNTLYLQMNSLRAEDTATYYCARSLVPALSYYYYYGMDVWGQGTTVTVSS",
    "unitsOfMeasure": "M⁻¹ s⁻¹",
    "val": 120000
  }
]

The recorded kon for entry VH 115 (VHH, Human single VH domain antibody (not a camelid VHH); source: E.coli TopF expression system, purified on Ni-NTA columns) VHH: EVQLVESGGGLVQPGGSLRLSCKGSGFTFGDYAIGWVRQAPGQRLEWIGWINTNSGSPKYAQGFTGRFTISRDNSKNTLYLQMNSLRAEDTAVYYCATDVVVPWGQGSQVTVSS equals 21000

response.value for VH-Fc 115 (Fc fusion, human, VH cloned into the pcDNA-IgG1 Fc vector; source: Expi293, transiently transfected, purified by protein A resin; not shown: Fc (human IgG1), C-terminal, kept) VH: EVQLVESGGGLVQPGGSLRLSCKGSGFTFGDYAIGWVRQAPGQRLEWIGWINTNSGSPKYAQGFTGRFTISRDNSKNTLYLQMNSLRAEDTAVYYCATDVVVPWGQGSQVTVSS (field: kon) = 33000
